Below, each entry is listed with its recorded IC50.
- System Tested: Dual specificity protein phosphatase 1 (Homo sapiens, UniProt P28562)
- Sequence (P28562 whole entry): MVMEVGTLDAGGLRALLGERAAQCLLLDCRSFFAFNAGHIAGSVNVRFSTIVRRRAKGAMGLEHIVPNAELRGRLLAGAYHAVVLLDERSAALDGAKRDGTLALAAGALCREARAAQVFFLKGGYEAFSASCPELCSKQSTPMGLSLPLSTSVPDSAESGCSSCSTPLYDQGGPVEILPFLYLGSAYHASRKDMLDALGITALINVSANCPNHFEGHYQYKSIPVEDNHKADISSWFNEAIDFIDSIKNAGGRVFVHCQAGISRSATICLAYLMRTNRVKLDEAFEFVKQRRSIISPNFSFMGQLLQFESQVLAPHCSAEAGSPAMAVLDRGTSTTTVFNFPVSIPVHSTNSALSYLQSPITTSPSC
- Assay Comment: concentration-response of DUSP1 blockers – biochemical, in vitro, confirmation, dose response (AID 551)
- Measurement Conditions: pH 7; 22 °C
Assay Endpoint: IC50

CCn1nc(-c2cccs2)nc2c(=O)n(C)c(=O)nc1-2 | 0.158 µM
Cc1ccc(Nc2nc(CSc3nnnn3-c3ccccc3)cc(=O)[nH]2)cc1 | > 50 µM
Cc1cc2n(n1)SC(Nc1ccccc1)N2 (configuration not stated) | > 50 µM
[O-]/[N+](=C\c1ccncc1)c1ccccc1 | 49.9 µM
Cc1cccc(NC(=O)c2cc(NC(=O)C3CCCCC3C(=O)O)ccc2N2CCCCC2)c1 (configuration not stated) | 49.2 µM
CC(NC(=O)c1ccc2c(c1)OCO2)C1CCCO1 (configuration not stated) | > 50 µM
[O-]/[N+](=C\c1ccc(OC(F)F)cc1)c1ccccc1 | > 50 µM
CC(C)(C)C(=O)c1sc(Nc2ccccc2)nc1N | > 50 µM
CCCCCC#CCC#CCC#CCC#CCCCC(=O)O | 6.53 µM
O=C(c1ccc2c(=O)n(C3CCCC3)c(=S)[nH]c2c1)N1CCN(C2CCCCC2)CC1 | > 50 µM
O=c1c2ccc[nH]c-2c(Nc2ccc(S(=O)(=O)N3CCCCCC3)cc2)n1Cc1ccccc1 | > 50 µM
CC1CCCCC1NC(=O)CCn1c(=O)oc2ccccc21 (configuration not stated) | > 50 µM
CC1=C(/C=C/C(C)=C/C=C/C(C)=C/C(=O)O)C(C)(C)CCC1 [ALL-TRANS-RETINOIC ACID] | 27.1 µM
CCCCNC(=O)c1c(N)n(CCCOC)c2nc3ccccc3nc12 | 26.2 µM
CCOC(=O)CC(=O)CSc1nnc2sc3ccccc3n12 | > 50 µM
O=C(CSc1nc2ccccc2c(=O)[nH]1)Nc1ccc(S(=O)(=O)N2CCCC2)cc1 | > 50 µM
COc1ccc(-n2c(SCC(=O)N3CCCC3)nc3c([nH]c4ccccc43)c2=O)cc1 | > 50 µM
CC12CC(NC(=O)N1c1ccc(C(=O)N3CCN(c4ccc(F)cc4)CC3)cc1)c1ccccc1O2 (configuration not stated) | > 50 µM
Cn1ncnc2c(=O)n(C)c(=O)nc1-2 | 0.184 µM
CC1CCCCC1NS(=O)(=O)c1ccc(S(=O)(=O)NCc2ccncc2)cc1 (configuration not stated) | > 50 µM
COC(=O)CCCc1nc2ccccc2s1 | > 50 µM
COC(=O)c1ccccc1NC(=O)CN1C(=O)C2CCCN2c2ncc(Cl)cc21 (configuration not stated) | 35.9 µM
CCn1c(=O)cc(SCC(=O)N2CCN(Cc3ccc4c(c3)OCO4)CC2)c2ccccc21 | > 50 µM
Cc1ccc(-c2csc(NC(=O)c3ccno3)n2)cc1 | 39 µM
O=C(CSc1nc2n[nH]cc2c(=O)n1-c1ccccc1)N1CCCc2ccccc21 | > 50 µM
COc1ccc(Cn2c(C)nc3c(c2=O)c2nc4ccccc4nc2n3Cc2ccco2)cc1 | 17 µM
O=C1CC(c2ccccc2)c2cc(O)ccc2O1 (configuration not stated) | 49.2 µM
COCCCn1c(N)c(C(=O)NCCC(C)C)c2nc3ccccc3nc21 | 26.2 µM
O=C(CSc1nc2c(cnn2-c2ccccc2)c(=O)[nH]1)c1ccc(Cl)cc1 | > 50 µM
Cc1ccc(C)n1-c1cccc(C(=O)O)c1 | 12 µM
Cc1nn(Cc2ccccc2)c(C)c1NC(=O)CSc1nc2sc3c(c2c(=O)n1C)CCC3 | > 50 µM
Cc1nc2cc(-c3cccc(F)c3)nn2c(C)c1CCC(=O)N1CCC2(CC1)OCCO2 | > 50 µM
Oc1ncnc2[nH]ncc12 | > 50 µM
O=C(NC1CC1)c1c[nH]c2ccc(S(=O)(=O)Nc3cccc(C(F)(F)F)c3)cc2c1=O | > 50 µM
Cc1cc(NC(=O)c2ccc(S(=O)(=O)N3CCCC3)cc2)nc2c1c(=O)oc1ccccc12 | 38.2 µM
CC(=O)[C@@H]1[C@@H]2C(=O)N(c3ccc(F)c(Cl)c3)C(=O)[C@@H]2C2c3ccccc3C=CN21 (some centres not stated) | > 50 µM
CCCCOc1ccccc1P(=O)(O)CP(=O)(c1ccccc1)c1ccccc1 | > 50 µM
O=C1Nc2ccccc2SC(c2ccccc2)C1O (configuration not stated) | 20.1 µM
c1ccc(SCc2nc(-c3ccncc3)no2)cc1 | > 50 µM
CCOc1ccc2noc3c2c1C(=O)c1ccccc1-3 | 49.2 µM
CCOc1ccc2nc(Nc3nc4c(c(=O)[nH]3)CCC4)nc(C)c2c1 | > 50 µM
Nc1nc2c(s1)CCc1c-2cnn1-c1ccccc1 | > 50 µM
